experiment: qHTS profiling for inhibitors of Plasmodium falciparum (DD2) proliferation (AID 743323); conditions: lower = more inhibition; at 28.7 µM (top of the series) unless noted
measured_metric: activity, percent of control (%)
Numbers only, in %.

# compound, measurement_unit, val
data = [
    ("COCC(=O)O[C@]1(CCN(C)CCCc2nc3ccccc3[nH]2)CCc2cc(F)ccc2[C@@H]1C(C)C", "%", -0.639),
    ("CNCCC(Oc1ccccc1OC)c1ccccc1 (stereo not given)", "%", 48),
]

Now examine the next entry.
Q) Fill in the blank: the reported activity, percent of control of "Nc1ncn([C@@H]2O[C@H](CO)[C@@H](O)[C@H]2O)c(=O)n1" is ____.
A) 121

* * *

test: qHTS assay for small molecule disruptors of the mitochondrial membrane potential - 1 hr assay (AID 651754); settings: series mostly up to 92.2 µM; further: nearly all actives have a fitted effect of over 35% in size
Inconclusive results are not listed. Active and inactive are the calls of the source. The call rests on the fitted dose curve.
Output constraint: value belongs to TRUE = active, FALSE = inactive

Worked set:
# chemical_smiles, assigned_class
data = [
    ("COC(=O)[C@H]1[C@H]2C[C@@H]3c4[nH]c5cc(OC)ccc5c4CCN3C[C@H]2C[C@@H](OC(=O)c2cc(OC)c(OC)c(OC)c2)[C@@H]1OC", "TRUE"),
    ("CCCCOCCOCCOCc1cc2c(cc1CCC)OCO2", "FALSE"),
    ("Nc1ncn([C@@H]2O[C@H](CO)[C@@H](O)[C@H]2O)c(=O)n1", "FALSE"),
]

Turning now to a further compound:
Q) What outcome does the record of this test show for "CCCCNC(=O)NS(=O)(=O)c1ccc(C)cc1" ?
A) FALSE

* * *

tested on: DIV17; assay: qHTS profiling for inhibitors of Plasmodium falciparum proliferation (AID 504749); further: nearly all actives have a fitted effect of over 60% in size; details: P. falciparum in erythrocytes, SYBR Green DNA, 72 h; series mostly up to 28.7 µM
Results filed as inconclusive are left out. The source made the active and inactive calls. Calls follow the shape of the dose curve; as a rule, active = well fitted inhibition curve with a large enough effect; inconclusive = small, poorly fitted or top-dose-only effect; inactive = flat fitted curve, though single readings scatter.
Output constraint: value belongs to YES = active, NO = inactive

Worked set:
# chemical_smiles, assayed_target, assigned_class
data = [
    ("COc1cc2c(cc1OC)-c1cc(=Nc3c(C)cc(C)cc3C)n(C)c(=O)n1CC2", "DIV17", "YES"),
    ("Cc1cc(C)c(/C=C2\\C(=O)Nc3ccccc32)[nH]1", "DIV17", "NO"),
    ("CN1CCN(C2=Nc3ccccc3Oc3ccc(Cl)cc32)CC1", "DIV17", "NO"),
    ("O=C1NCN(c2ccccc2)C12CCN(CCCC(c1ccc(F)cc1)c1ccc(F)cc1)CC2", "DIV17", "YES"),
    ("CN1CCN(CC(=O)N2c3ccccc3C(=O)Nc3cccnc32)CC1", "DIV17", "NO"),
]

Q) What outcome does the record of this test show for "Cc1scc2c1N(C(=O)CN1CCN(C)CC1)c1ccccc1NC2=O" ?
A) NO

Q) Item: "NCCCNCCSP(=O)(O)O"
A) NO

Q) Item: "FC(F)(F)c1ccccc1-n1ccnc1"
A) NO

Q) Item: "NC/C=C/C(=O)O"
A) NO

Q) Item: "O=C(CCCN1CCC(O)(c2cccc(C(F)(F)F)c2)CC1)c1ccc(F)cc1"
A) YES

* * *

Test system: P94_40
Experiment: qHTS profiling for inhibitors of Plasmodium falciparum proliferation (AID 504749); further: nearly all actives have a fitted effect of over 60% in size; further: potency means the concentration at half of the fitted maximal effect
Conditions: P. falciparum in erythrocytes, SYBR Green DNA, 72 h; series mostly up to 28.7 µM
Protocol: NIH National Institute of Allergy and Infectious Diseases [NIAID] NIH Chemical Genomics Center [NCGC] […] Because mature erythrocytes lack DNA, only Plasmodium-derived DNA is detected. NCGC Assay Protocol Summary: The SYBR Green viability assay was adapted from a method described previously (Plouffe et al., 2008). […] The following morning, fluorescence intensity at 485(14) nm excitation and 535(25) nm emission wavelengths was measured on an EnVision (Perkin Elmer) plate reader. […]
Inconclusive results are not listed. Active and inactive are the calls of the source. Calls come from the whole dose curve; as a rule, active = well fitted inhibition curve with a large enough effect; inconclusive = small, poorly fitted or top-dose-only effect; inactive = flat fitted curve, though single readings scatter.
measured_metric: Potency

# compound, assayed_target, Potency
data = [
    ("CCN1CCC[C@H]1CNC(=O)c1c(O)c(Cl)cc(Cl)c1OC", "P94_40", "inactive"),
    ("CC(=O)OCC1=C(C(=O)O)N2C(=O)[C@@H](NC(=O)Cc3cccs3)[C@H]2SC1", "P94_40", "inactive"),
    ("COC(=O)C1=C(C)NC(C)=C(C(=O)OC(C)(C)CN(C)CCC(c2ccccc2)c2ccccc2)C1c1cccc([N+](=O)[O-])c1 (centres undefined)", "P94_40", "2.51 µM (active)"),
    ("CCN(Cc1ccncc1)C(=O)C(CO)c1ccccc1 (centres undefined)", "P94_40", "inactive"),
    ("O=C(O)CN(CCOCCOCCN(CC(=O)O)CC(=O)O)CC(=O)O", "P94_40", "inactive"),
]

// for each compound in input: emit Potency
1. Cc1nnc(SCC2=C(C(=O)O)N3C(=O)[C@@H](NC(=O)Cn4cnnn4)[C@H]3SC2)s1
2. CCCCCN(CCCCC)C(=O)C(CCC(=O)O)NC(=O)c1ccc(Cl)c(Cl)c1 (centres undefined)

A)
1. inactive
2. inactive

* * *

assay: Cell Viability - LYMP2-025 (AID 976); settings: LYMP2-025 lymphoblastoid cell viability; series mostly up to 92.2 µM;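 further: cells exposed to compound for 24 h at 37 °C; plate controls were DMSO only for no effect and tetraoctylammonium bromide control for full effect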
Inconclusive results are not listed. Activity calls are given as the source filed them. The call rests on the fitted dose curve; in most records, active means well fitted cell-killing curve with a large enough effect; inconclusive means small, poorly fitted or top-dose-only effect; inactive means flat fitted curve, though single readings scatter.
measured_metric: outcome

Here is how some compounds turned out for outcome.
# chemical_smiles, val
measured = [
    ("NC(=Nc1ccccc1)Nc1ccccc1", "inactive"),
    ("NC(=O)N1c2ccccc2C=Cc2ccccc21", "inactive"),
    ("COc1ccc(CN(CCN(C)C)c2ccccn2)cc1", "inactive"),
    ("CCCCOCCOCCOCc1cc2c(cc1CCC)OCO2", "inactive"),
]

Now examine the next entry.
Q) Fill in the blank: the reported outcome of "COC(=O)[C@H]1[C@H]2C[C@@H]3c4[nH]c5cc(OC)ccc5c4CCN3C[C@H]2C[C@@H](OC(=O)c2cc(OC)c(OC)c(OC)c2)[C@@H]1OC" is ____.
A) inactive

* * *

test system: Zika virus NS2B-NS3 protease (unlinked); test: Optimization of GU AMC qHTS for Zika virus inhibitors: Unlinked NS2B-NS3 protease assay (AID 1347151); conditions: recombinant ZIKV NS2B-NS3 protease, fluorogenic AMC substrate; series mostly up to 52.5 µM;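 further: 0% = no-inhibitor control and -100% = no-enzyme control; nearly all actives have a fitted effect of over 80% in size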
Inconclusive results are not listed. Calls of active or inactive are those of the source. Calls come from the whole dose curve; as a rule, active = well fitted inhibition curve with a large enough effect; inconclusive = small, poorly fitted or top-dose-only effect; inactive = no such curve, though single readings can be large or run the other way.
Output constraint: value belongs to active, inactive

# molecule, assigned_class
data = [
    ("Cc1ccc(S(=O)(=O)NC(=O)NN2CCCCCC2)cc1", "inactive"),
]

Q) What outcome does the record of this test show for CC(C)NCC(O)c1cc(O)cc(O)c1 (configuration not stated) ?
A) inactive

Q) Item: "CN=C(NC#N)NCCSCc1nc[nH]c1C"
A) inactive

Q) Item: "CCCCNC(=O)NS(=O)(=O)c1ccc(C)cc1"
A) inactive

* * *

tested on: DIV14; experiment: qHTS profiling for inhibitors of Plasmodium falciparum proliferation (AID 504749); further: nearly all actives have a fitted effect of over 60% in size; conditions: P. falciparum in erythrocytes, SYBR Green DNA, 72 h; series mostly up to 28.7 µM
Results filed as inconclusive are left out. Calls of active or inactive are those of the source. The call rests on the fitted dose curve; in most records, active means well fitted inhibition curve with a large enough effect; inconclusive means small, poorly fitted or top-dose-only effect; inactive means flat fitted curve, though single readings scatter.
Output constraint: value belongs to active, inactive

# compound, assigned_class
records = [
    ("CN(C)CCCN1c2ccccc2Sc2ccccc21", "active"),
]

Q) What outcome does the record of this test show for "CCNC(=O)N1CCN(CCCC(c2ccc(F)cc2)c2ccc(F)cc2)CC1" ?
A) active

Q) Item: NS(=O)(=O)c1cc2c(cc1Cl)NC(C1CC3C=CC1C3)NS2(=O)=O (stereo not given)
A) inactive

Q) Item: CC(N=C(NC#N)Nc1ccncc1)C(C)(C)C (stereo not given)
A) inactive

Q) Item: "C[N+](C)(C)CCOC(=O)CCC(=O)OCC[N+](C)(C)C"
A) inactive

Q) Item: "C[N+](C)(C)CCCCCCCCCC[N+](C)(C)C"
A) active

Q) Item: "Cc1cc(C)c(/C=C2\C(=O)Nc3ccccc32)[nH]1"
A) inactive

Q) Item: "NCCCNCCSP(=O)(O)O"
A) inactive

Q) Item: "CCCCNc1c(C(=O)OCC)c(C)nc2c1cnn2CC"
A) inactive

Q) Item: "CCN(CC)CC(=O)Nc1c(C)cccc1C"
A) inactive

* * *

tested on: HEK293; test: Cytotoxic Profiling of Annotated Libraries Using Quantitative High-Throughput Screening (AID 1296008); settings: Five cell lines viability, CellTiter-Glo ATP luminescence, 48-72 h; further: nearly all actives have a fitted effect of over 60% in size
Results filed as inconclusive are left out. Active and inactive are the calls of the source. Calls follow the shape of the dose curve; as a rule, active = well fitted inhibition curve with a large enough effect; inconclusive = small, poorly fitted or top-dose-only effect; inactive = flat fitted curve, though single readings scatter.
Output constraint: value belongs to yes = active, no = inactive

Worked set:
# compound, assigned_class
data = [
    ("COc1cc(C(=O)OCCCN2CCCN(CCCOC(=O)c3cc(OC)c(OC)c(OC)c3)CC2)cc(OC)c1OC", "yes"),
    ("CC(C(=O)O)c1ccc(CC2CCCC2=O)cc1 (stereo not drawn)", "no"),
    ("CCCN(CCC)C(=O)C(CCC(=O)O)NC(=O)c1ccccc1 (stereo not drawn)", "no"),
    ("CN(C)C(=O)Oc1cccc([N+](C)(C)C)c1", "no"),
    ("CC(=O)Oc1cc(C(C)C)c(OCCN(C)C)cc1C", "no"),
]

Turning now to a further compound:
Q) What outcome does the record of this test show for "CN1C[C@H](C(=O)N[C@]2(C)O[C@@]3(O)[C@@H]4CCCN4C(=O)[C@H](Cc4ccccc4)N3C2=O)C[C@@H]2c3cccc4[nH]cc(c34)C[C@H]21" ?
A) yes

The reported measurements were obtained from PubChem BioAssay (NCATS).
